target: Proteasome Macropain subunit (Homo sapiens) (UniProt P49721); assay: Inhibition of trypsin-like activity 20S proteasome beta subunit 2 of human MCF7 cells using fluorogenic substrate Boc-LRR-AMC at 10 uM after 1 hr by fluorescence analysis relative to control; format: cell-based
Sequence (P49721 whole entry): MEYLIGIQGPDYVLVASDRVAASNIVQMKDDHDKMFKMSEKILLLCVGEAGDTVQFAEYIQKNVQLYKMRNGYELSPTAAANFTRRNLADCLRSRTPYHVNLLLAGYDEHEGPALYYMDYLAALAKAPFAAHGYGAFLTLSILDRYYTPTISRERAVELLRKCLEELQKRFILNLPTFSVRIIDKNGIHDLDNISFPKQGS
Provide the recorded inhibition for the entries that follow.
Give the value in % but do not write % after it.

Could you tell me which inhibition is on file for Cc1ccc(NS(=O)(=O)c2ccc(NC3=C(Cl)C(=O)c4ccccc4C3=O)cc2)nc1 ?
11.6

Could you tell me which inhibition is on file for O=C(Nc1ccc([N+](=O)[O-])cc1)c1ccc(NC2=C(Cl)C(=O)c3ccccc3C2=O)cc1 ?
30.5

Could you tell me which inhibition is on file for O=C1C(Cl)=C(Nc2ccc(S(=O)(=O)Nc3cccnc3Cl)cc2)C(=O)c2ccccc21 ?
22.1
